biological target: FLT3 (Homo sapiens, UniProt P36888); construct: purchased Reaction Biology Corporation; test: HotSpot kinase assay, FLT3; format: biochemical; settings: HotSpot radiometric 33P ATP assay, 25° C., 120 min
Sequence (P36888 27-993): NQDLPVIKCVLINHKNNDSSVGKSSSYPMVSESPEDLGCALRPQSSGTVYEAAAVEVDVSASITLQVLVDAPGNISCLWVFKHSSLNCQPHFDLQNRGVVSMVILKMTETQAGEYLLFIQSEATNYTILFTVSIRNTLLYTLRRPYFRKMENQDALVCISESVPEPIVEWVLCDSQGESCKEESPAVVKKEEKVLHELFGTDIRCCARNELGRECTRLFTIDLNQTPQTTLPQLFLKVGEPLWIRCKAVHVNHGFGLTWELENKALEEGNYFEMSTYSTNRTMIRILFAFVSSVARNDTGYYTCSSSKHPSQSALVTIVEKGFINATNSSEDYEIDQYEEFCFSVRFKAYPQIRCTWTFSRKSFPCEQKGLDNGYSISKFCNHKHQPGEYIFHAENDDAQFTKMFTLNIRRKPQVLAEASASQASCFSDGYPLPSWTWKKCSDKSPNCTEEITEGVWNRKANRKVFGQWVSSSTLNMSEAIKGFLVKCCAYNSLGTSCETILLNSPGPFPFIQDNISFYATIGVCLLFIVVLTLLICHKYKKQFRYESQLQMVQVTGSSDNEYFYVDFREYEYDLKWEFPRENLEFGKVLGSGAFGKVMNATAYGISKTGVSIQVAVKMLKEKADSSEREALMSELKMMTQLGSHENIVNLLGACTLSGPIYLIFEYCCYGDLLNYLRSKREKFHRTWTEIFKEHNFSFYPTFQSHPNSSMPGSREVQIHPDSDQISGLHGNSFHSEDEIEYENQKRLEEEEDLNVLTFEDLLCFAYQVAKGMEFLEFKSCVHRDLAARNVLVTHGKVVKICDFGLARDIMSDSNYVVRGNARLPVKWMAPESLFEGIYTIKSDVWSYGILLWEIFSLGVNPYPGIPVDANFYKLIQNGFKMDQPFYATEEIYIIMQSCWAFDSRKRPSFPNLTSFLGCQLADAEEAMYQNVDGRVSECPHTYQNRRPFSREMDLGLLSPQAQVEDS
endpoint: IC50

Solved entries:
compound	IC50
N[C@H]1CC[C@@H](COc2cncnc2-c2cnn(-c3ccccc3C(F)(F)F)c2)CC1 [Compound I-2]	200 to 1000 nM
CN(C)[C@@H]1CC[C@H](COc2cncnc2-c2cnn(-c3ccccc3F)c2)C1 [Compound I-7]	200 to 1000 nM

Now examine the next entry.
Prompt line: Notebook entry, FLT3 (Homo sapiens, UniProt P36888) assay: IC50 of CC(C)N[C@H]1CC[C@@H](COc2cncnc2-c2cnn(-c3ccccc3F)c2)CC1 [Compound I-15] = ?
Response line: < 200 nM

* * *

molecular target: MELK (Homo sapiens, UniProt Q14680); construct: purchased Reaction Biology Corporation; experiment: HotSpot kinase assay, MELK; assay type: biochemical; details: HotSpot radiometric 33P ATP assay, 25° C., 120 min
Sequence (Q14680 whole entry): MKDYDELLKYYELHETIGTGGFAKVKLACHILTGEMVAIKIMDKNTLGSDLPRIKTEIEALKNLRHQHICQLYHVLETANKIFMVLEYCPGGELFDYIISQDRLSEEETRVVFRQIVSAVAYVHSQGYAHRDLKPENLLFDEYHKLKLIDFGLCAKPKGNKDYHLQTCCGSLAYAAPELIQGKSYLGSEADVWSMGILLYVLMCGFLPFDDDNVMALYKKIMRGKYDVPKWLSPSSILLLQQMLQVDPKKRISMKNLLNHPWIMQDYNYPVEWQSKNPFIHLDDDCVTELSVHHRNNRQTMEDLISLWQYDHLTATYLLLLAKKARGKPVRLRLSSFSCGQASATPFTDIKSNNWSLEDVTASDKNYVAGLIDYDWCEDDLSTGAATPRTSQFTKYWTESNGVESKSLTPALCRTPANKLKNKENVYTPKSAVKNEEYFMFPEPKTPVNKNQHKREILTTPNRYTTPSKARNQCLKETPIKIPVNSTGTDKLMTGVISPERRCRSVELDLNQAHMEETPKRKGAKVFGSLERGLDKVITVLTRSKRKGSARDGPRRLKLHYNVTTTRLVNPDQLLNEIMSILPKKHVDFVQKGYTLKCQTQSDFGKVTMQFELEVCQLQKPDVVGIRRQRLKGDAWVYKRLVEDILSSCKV
endpoint: IC50

compound	IC50
CC(Oc1cncnc1-c1cnn(-c2ccccc2F)c1)[C@H]1CC[C@@H](N)CC1 (some centres unmarked) [Compound I-17]	200 to 1000 nM
Fc1ccccc1-n1cc(-c2ncncc2NCC2CCNCC2)cn1 [Compound I-24]	> 1000 nM
c1ccc(-n2cc(-c3ncncc3OCC3CCNCC3)cn2)cc1 [Compound I-28]	200 to 1000 nM
N[C@H]1CC[C@@H](COc2cncnc2-c2cnn(-c3c(F)cccc3F)c2)CC1 [Compound I-1]	< 200 nM
NC1CCN(c2cncnc2-c2cnn(-c3ccccc3F)c2)CC1 [Compound I-10]	> 1000 nM
Fc1ccccc1-n1cc(-c2ncnc(Cl)c2OCC2CCNCC2)cn1 [Compound I-27]	200 to 1000 nM
N[C@H]1CC[C@@H](COc2cncnc2-c2cnn(-c3ccc(N4CCOCC4)cc3)c2)CC1 [Compound I-33]	< 200 nM
N[C@H]1CC[C@@H](COc2cncnc2-c2cnn(-c3ccccc3OC(F)(F)F)c2)CC1 [Compound I-3]	200 to 1000 nM
CC(C)N1CCC(COc2cncnc2-c2cnn(-c3ccccc3F)c2)CC1 [Compound I-16]	> 1000 nM
CN(C)C[C@@H]1CC[C@H](COc2cncnc2-c2cnn(-c3ccccc3F)c2)C1 [Compound I-8]	< 200 nM

Next:
Prompt line: Field request: IC50 | item: CCS(=O)(=O)c1ccc(-n2cc(-c3ncncc3OC[C@H]3CC[C@@H](N)CC3)cn2)cc1 [Compound I-34]
Response line: 200 to 1000 nM

* * *

The following molecules are shown together with reported IC50 values.
molecular target: MELK (Homo sapiens); construct: purchased Reaction Biology Corporation; assay: HotSpot kinase assay, MELK; type: biochemical; details: HotSpot radiometric 33P ATP assay, 25° C., 120 min

molecule	IC50
N#Cc1ccccc1-n1cc(-c2ncncc2OC[C@H]2CC[C@@H](N)CC2)cn1 [Compound I-4]	200 to 1000 nM

Prompt line: Consider the molecule shown here: N[C@H]1CC[C@@H](CCOc2cncnc2-c2cnn(-c3ccccc3F)c2)CC1 [Compound I-19] What is its recorded IC50?
Response line: < 200 nM

Prompt line: Next: Cc1cccc(F)c1-n1cc(-c2ncncc2OC[C@H]2CCC[C@@H](N)C2)cn1 [Compound I-18]
Response line: > 1000 nM

src = patent US11053221B2
